Cited source: PubChem BioAssay AID2060912

System: HUVEC/MSC spheroids viability
Assay: Human HUVEC/MSC cell line growth inhibition [KRAS2];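 also: percent of DMSO vehicle control luminescence so 100% = untreated viability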
Details: second compound 0.3 µM; first compound 0.316 µM; active compounds read low
Recorded viability, T/C for the following molecules
Give just the numeric value; % need not be written.

molecule	viability, T/C, %
CCNC(=O)CC1N=C(c2ccc(Cl)cc2)c2cc(OC)ccc2-n2c(C)nnc21 (stereo not given) + C=CC(=O)N1CCN(c2nc(OCC3CCCN3C)nc3c2CCN(c2cccc4cccc(C)c24)C3)CC1CC#N	60.5
O=C(c1cc(Cc2n[nH]c(=O)c3ccccc23)ccc1F)N1CCN(C(=O)C2CC2)CC1 + C=CC(=O)N1CCN(c2nc(OCC3CCCN3C)nc3c2CCN(c2cccc4cccc(C)c24)C3)CC1CC#N	86.1
CC1OCC2(CCN(c3cnc(Sc4ccnc(N)c4Cl)c(N)n3)CC2)C1N (stereo not given) + C=CC(=O)N1CCN(c2nc(OCC3CCCN3C)nc3c2CCN(c2cccc4cccc(C)c24)C3)CC1CC#N	89.4

// query Query: viability, T/C; subject: CCN1CCN(Cc2ccc(Nc3ncc(F)c(-c4cc(F)c5nc(C)n(C(C)C)c5c4)n3)nc2)CC1 + C=CC(=O)N1CCN(c2nc(OCC3CCCN3C)nc3c2CCN(c2cccc4cccc(C)c24)C3)CC1CC#N
// result 115

// query Query: viability, T/C; subject: CC1(C)CCC(CN2CCN(c3ccc(C(=O)NS(=O)(=O)c4ccc(NCC5CCOCC5)c([N+](=O)[O-])c4)c(Oc4cnc5[nH]ccc5c4)c3)CC2)=C(c2ccc(Cl)cc2)C1 + C=CC(=O)N1CCN(c2nc(OCC3CCCN3C)nc3c2CCN(c2cccc4cccc(C)c24)C3)CC1CC#N
// result 78.7
